Tested on: Plasmodium falciparum
Experiment: Antiprotozoal activity against chloroquine-resistant Plasmodium falciparum K1 after 48 hrs by [3H]-hypoxanthine incorporation assay
Assay type: functional, organism-based
Conditions: Plasmodium falciparum, K1

| smi | IC50, nM |
| --- | --- |
| Cl.Cl.N=C(N)c1ccc(-c2cccc(-c3ccc(C(=N)N)nc3)c2)cn1 | 15 |
| Cl.Cl.N=C(N)c1ccc(-c2cc(O)cc(-c3ccc(C(=N)N)cc3)c2)cc1 | 38 |
| Cl.Cl.c1cc(-c2ccc(C3=NCCN3)cc2)cc(-c2ccc(C3=NCCN3)cc2)c1 | 73 |
| N=C(N)c1cccc(-c2cc(Cl)cc(-c3cccc(C(=N)N)c3)c2)c1 | 33 |
| Cl.Cl.Cl.N=C(N)c1ccc(-c2cc(Cl)cc(-c3ccc(C(=N)N)cc3)c2)cc1 | 39 |
| Cl.Cl.N=C(N)c1ccc(-c2cc(N)cc(-c3ccc(C(=N)N)cc3)c2)cc1 | 136 |
| C[C@@H]1CC[C@H]2[C@@H](C)C(=O)O[C@@H]3O[C@@]4(C)CC[C@@H]1[C@]32OO4 | 4 |
| N=C(N)c1cncc(-c2cccc(-c3cncc(C(=N)N)c3)c2)c1 | 58 |
| Cl.Cl.N=C(Nc1ccc(-c2cccc(-c3cccc(NC(=N)c4ccccn4)c3)c2)cc1)c1ccccn1 | 208 |
